System: 276233-004-R-J1-PDC KRAS spheroids with HUVEC/MSC, viability
Test: Anticancer human tumor 276233-004-R-J1-PDC patient-derived colon adenocarcinoma cell line growth inhibition [KRAS2]
Settings: second compound 0.1 µM; first compound 0.0316 µM; stronger effect = lower value
Excerpt: Multicellular complex tumor spheroid response to RAS pathway inhibitors in combination with a targeted agents in patient-derived cell lines with oncogenic KRAS variants from multiple cancer types A high-throughput screen of multi-cell type tumor spheroids was designed to identify active combinations of targeted small molecules and KRAS pathway inhibitors. […] Compounds. […] If the clinical Cmax for an agent had not been determined, the highest concentration tested was 10 microM. […]
Parameter: viability, T/C. Scope: all listed entries.

# annotated cases, reported viability, T/C shown
Molecule | viability, T/C
CC1(C)CCC(CN2CCN(c3ccc(C(=O)NS(=O)(=O)c4ccc(NCC5CCOCC5)c([N+](=O)[O-])c4)c(Oc4cnc5[nH]ccc5c4)c3)CC2)=C(c2ccc(Cl)cc2)C1 + CC1OCC2(CCN(c3cnc(Sc4ccnc(N)c4Cl)c(N)n3)CC2)C1N | 78.6%
CC(C)NCC(C(=O)N1CCN(c2ncnc3c2C(C)CC3O)CC1)c1ccc(Cl)cc1 (stereo not given) + COc1cc2nc(C)nc(NC(C)c3cc(N)cc(C(F)(F)F)c3)c2cc1OC1CCOC1 | 75.5%

For the molecule O=C(c1cc(Cc2n[nH]c(=O)c3ccccc23)ccc1F)N1CCN(C(=O)C2CC2)CC1 + C=CC(=O)N1CCN(c2nc(OCC3CCCN3C)nc3c2CCN(c2cccc4cccc(C)c24)C3)CC1CC#N , what viability, T/C is on record?
98.1%

For the molecule CC(=O)OC12COC1CC(O)C1(C)C(=O)C(O)C3=C(C)C(OC(=O)C(O)C(NC(=O)OC(C)(C)C)c4ccccc4)CC(O)(C(OC(=O)c4ccccc4)C21)C3(C)C (stereo not given) + CNCc1ccccc1-c1csc(C(C)Nc2nc(C)nc3cc(OC)c(OC)cc23)c1 , what viability, T/C is on record?
96.3%

---

Parameter: viability, T/C. Scope: all listed entries.
Test system: 276233-004-R-J1-PDC KRAS spheroids with HUVEC/MSC, viability
Assay: Anticancer human tumor 276233-004-R-J1-PDC cell line growth inhibition [KRAS2];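 further: cells exposed to agents for seven days before viability read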;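 on viability, T/C: 100% = DMSO vehicle control wells and lower values mean fewer viable cells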
Conditions: second compound 0.1 µM; first compound 0.0316 µM; stronger effect = lower value
Quick reminder: number only, in %, skip the unit.

# annotated cases, reported viability, T/C shown
Molecule | Data Value
COc1cc2nccc(Oc3ccc(NC(=O)C4(C(=O)Nc5ccc(F)cc5)CC4)cc3)c2cc1OC + C=CC(=O)N1CCN(c2nc(OCC3CCCN3C)nc3c2CCN(c2cccc4cccc(C)c24)C3)CC1CC#N | 93.5
O=C(c1cc(Cc2n[nH]c(=O)c3ccccc23)ccc1F)N1CCN(C(=O)C2CC2)CC1 + COc1cc2nc(C)nc(NC(C)c3cc(N)cc(C(F)(F)F)c3)c2cc1OC1CCOC1 | 89.7
CC(=O)OC12COC1CC(O)C1(C)C(=O)C(O)C3=C(C)C(OC(=O)C(O)C(NC(=O)OC(C)(C)C)c4ccccc4)CC(O)(C(OC(=O)c4ccccc4)C21)C3(C)C (stereo not given) + C=CC(=O)N1CCN(c2nc(=O)n(-c3c(C)ccnc3C(C)C)c3nc(-c4c(O)cccc4F)c(F)cc23)C(C)C1 | 96.5

For the molecule CCN1CCN(Cc2ccc(Nc3ncc(F)c(-c4cc(F)c5nc(C)n(C(C)C)c5c4)n3)nc2)CC1 + CC1OCC2(CCN(c3cnc(Sc4ccnc(N)c4Cl)c(N)n3)CC2)C1N , what viability, T/C is on record?
87

For the molecule COc1cc(Nc2ncc3c(n2)-c2ccc(Cl)cc2C(c2c(F)cccc2OC)=NC3)ccc1C(=O)O + CC1OCC2(CCN(c3cnc(Sc4ccnc(N)c4Cl)c(N)n3)CC2)C1N , what viability, T/C is on record?
107

---

Test system: 276233-004-R-J1-PDC KRAS spheroids with HUVEC/MSC, viability
Test: Anticancer human tumor 276233-004-R-J1-PDC cell line growth inhibition [KRAS2];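 further: cells exposed to agents for seven days before viability read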
Details: curve of first compound; second compound 3.16 µM
Excerpt: Multicellular complex tumor spheroid response to RAS pathway inhibitors in combination with a targeted agents in patient-derived cell lines with oncogenic KRAS variants from multiple cancer types A high-throughput screen of multi-cell type tumor spheroids was designed to identify active combinations of targeted small molecules and KRAS pathway inhibitors. […] Compounds. […] If the clinical Cmax for an agent had not been determined, the highest concentration tested was 10 microM. […]
Parameter: pIC50. Scope: all listed entries.
Bear in mind: pIC50 is minus log10 of a mol/L concentration; give just that figure.

Compound | pIC50
COC(=O)c1ccc2c(C(=Nc3ccc(N(C)C(=O)CN4CCN(C)CC4)cc3)c3ccccc3)c(O)[nH]c2c1 + CC1OCC2(CCN(c3cnc(Sc4ccnc(N)c4Cl)c(N)n3)CC2)C1N | 7.48

For the compound CC(C)n1nc(-c2ccc3oc(N)nc3c2)c2c(N)ncnc21 + CC1OCC2(CCN(c3cnc(Sc4ccnc(N)c4Cl)c(N)n3)CC2)C1N , what pIC50 is on record?
7.92

For the compound CC(C)NCC(C(=O)N1CCN(c2ncnc3c2C(C)CC3O)CC1)c1ccc(Cl)cc1 (stereo unspecified) + C=CC(=O)N1CCN(c2nc(=O)n(-c3c(C)ccnc3C(C)C)c3nc(-c4c(O)cccc4F)c(F)cc23)C(C)C1 , what pIC50 is on record?
5.14

---

System: 276233-004-R-J1-PDC KRAS spheroids with HUVEC/MSC, viability
Test: Anticancer human tumor 276233-004-R-J1-PDC cell line growth inhibition [KRAS2];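 further: cells exposed to agents for seven days before viability read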;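 on viability, T/C: 100% = DMSO vehicle control wells and lower values mean fewer viable cells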
Settings: second compound 1 µM; first compound 1 µM; stronger effect = lower value
Parameter: viability, T/C. Scope: all listed entries.
Quick reminder: number only, in %, skip the unit.

# annotated cases, reported viability, T/C shown
Compound | System Tested | Data Value
CC(=O)OC12COC1CC(O)C1(C)C(=O)C(O)C3=C(C)C(OC(=O)C(O)C(NC(=O)OC(C)(C)C)c4ccccc4)CC(O)(C(OC(=O)c4ccccc4)C21)C3(C)C (stereo not given) + CNCc1ccccc1-c1csc(C(C)Nc2nc(C)nc3cc(OC)c(OC)cc23)c1 | 276233-004-R-J1-PDC KRAS spheroids with HUVEC/MSC, viability | 119
CC1COCCN1c1cc(-c2ccnn2C)c2ccnc(-c3ccn[nH]3)c2n1 (stereo not given) + CNCc1ccccc1-c1csc(C(C)Nc2nc(C)nc3cc(OC)c(OC)cc23)c1 | 276233-004-R-J1-PDC KRAS spheroids with HUVEC/MSC, viability | 57.7
COc1cc2nccc(Oc3ccc(NC(=O)C4(C(=O)Nc5ccc(F)cc5)CC4)cc3)c2cc1OC + C=CC(=O)N1CCN(c2nc(=O)n(-c3c(C)ccnc3C(C)C)c3nc(-c4c(O)cccc4F)c(F)cc23)C(C)C1 | 276233-004-R-J1-PDC KRAS spheroids with HUVEC/MSC, viability | 72.1
CC(=O)OC12COC1CC(O)C1(C)C(=O)C(O)C3=C(C)C(OC(=O)C(O)C(NC(=O)OC(C)(C)C)c4ccccc4)CC(O)(C(OC(=O)c4ccccc4)C21)C3(C)C (stereo not given) + C=CC(=O)N1CCN(c2nc(=O)n(-c3c(C)ccnc3C(C)C)c3nc(-c4c(O)cccc4F)c(F)cc23)C(C)C1 | 276233-004-R-J1-PDC KRAS spheroids with HUVEC/MSC, viability | 88

Now turn to the next compound.
For the compound COc1cc(Nc2ncc3c(n2)-c2ccc(Cl)cc2C(c2c(F)cccc2OC)=NC3)ccc1C(=O)O + CNCc1ccccc1-c1csc(C(C)Nc2nc(C)nc3cc(OC)c(OC)cc23)c1 , what viability, T/C is on record?
85

---

Test system: 276233-004-R-J1-PDC KRAS spheroids with HUVEC/MSC, viability
Assay: Anticancer human tumor 276233-004-R-J1-PDC cell line growth inhibition [KRAS2];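 further: cells exposed to agents for seven days before viability read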;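 on viability, T/C: 100% = DMSO vehicle control wells and lower values mean fewer viable cells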
Details: second compound 1 µM; first compound 0.00316 µM; stronger effect = lower value
Metric: viability, T/C (%)
Quick reminder: number only, in %, skip the unit.

# annotated cases, reported viability, T/C shown
Molecule | System Tested | Metric | Data Value
CN(C)C/C=C/C(=O)Nc1cc2c(Nc3ccc(F)c(Cl)c3)ncnc2cc1O[C@H]1CCOC1 + COc1cc2nc(C)nc(NC(C)c3cc(N)cc(C(F)(F)F)c3)c2cc1OC1CCOC1 | 276233-004-R-J1-PDC KRAS spheroids with HUVEC/MSC, viability | viability, T/C | 87.9
CN(C)C/C=C/C(=O)Nc1cc2c(Nc3ccc(F)c(Cl)c3)ncnc2cc1O[C@H]1CCOC1 + C=CC(=O)N1CCN(c2nc(=O)n(-c3c(C)ccnc3C(C)C)c3nc(-c4c(O)cccc4F)c(F)cc23)C(C)C1 | 276233-004-R-J1-PDC KRAS spheroids with HUVEC/MSC, viability | viability, T/C | 80.8
CC(C)n1nc(-c2ccc3oc(N)nc3c2)c2c(N)ncnc21 + C=CC(=O)N1CCN(c2nc(=O)n(-c3c(C)ccnc3C(C)C)c3nc(-c4c(O)cccc4F)c(F)cc23)C(C)C1 | 276233-004-R-J1-PDC KRAS spheroids with HUVEC/MSC, viability | viability, T/C | 105
CC(C)n1nc(-c2ccc3oc(N)nc3c2)c2c(N)ncnc21 + C=CC(=O)N1CCN(c2nc(OCC3CCCN3C)nc3c2CCN(c2cccc4cccc(C)c24)C3)CC1CC#N | 276233-004-R-J1-PDC KRAS spheroids with HUVEC/MSC, viability | viability, T/C | 81.2

Now turn to the next molecule.
For the molecule CC(=O)Nc1cccc(-n2c(=O)n(C3CC3)c(=O)c3c(Nc4ccc(I)cc4F)n(C)c(=O)c(C)c32)c1 + C=CC(=O)N1CCN(c2nc(=O)n(-c3c(C)ccnc3C(C)C)c3nc(-c4c(O)cccc4F)c(F)cc23)C(C)C1 , what viability, T/C is on record?
71.9
